Data origin: the supplement of paper PMC10724198

# Tested on: Saccharomyces cerevisiae
# procedureText: protein stability index of tFT-peptide fusion (C-terminal peptide) (PSI (0-1 scale)); higher = more stable (slower turnover);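 further: PSI is a weighted mean of sequencing reads over stability bins, variants kept only with over 10 reads, mCherry proximal and sfGFP distal, peptide attached via GGGS linker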
# measurementConditions: genetic background: wild type; temperature: 30 C
measuredMetric: protein stability index
Answer using only a numeral; do not append any unit.

See these solved cases before continuing.
HGCVWCSGLFGV
0.739
PPTFPPPLPLPP
0.692
AGLPEKARDRGS
0.638
RLGRYSIIHCLA
0.15

Could you now consider this next sequence?
Look at this sequence and give its reported protein stability index. DGCLMEHSMQVG 0.656

====

# System: Saccharomyces cerevisiae
# procedureText: protein stability index of tFT-peptide fusion (C-terminal peptide) (PSI (0-1 scale)); higher = more stable (slower turnover)
# measurementConditions: genetic background: cdc34-1; temperature: 37 C
measuredMetric: protein stability index
No unit in the answer, please; the number alone is enough.

// known answers, use as guide
VLCFTSAYHRLV
0.662
CVILVSFFCYSA
0.142
HANPGTFGPCTR
0.654
LLSLPTTNLMAF
0.575
IIVLNIGSVIFC
0.456

State the recorded protein stability index for this entry: SWIKRYEITCIL 0.543
